FYI, the data here is from paper PMC3154423.

- assayedSystem: Jun bZIP K258A;Fos bZIP R157A (human;human, UniProt P05412;P01100 252-315;137-200, K258A|R157A)
- Sequence (P05412 252-315 K258A, chain 1 of 2): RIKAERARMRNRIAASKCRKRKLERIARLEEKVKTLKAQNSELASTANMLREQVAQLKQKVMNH
- Sequence (P01100 137-200 R157A, chain 2 of 2): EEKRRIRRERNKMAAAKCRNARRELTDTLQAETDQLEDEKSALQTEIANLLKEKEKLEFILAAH
- measurementNotes: ITC
assayReadout: Kd (nM)
Give bare numbers, in nM.

Q: Fill blank: measured Kd of the binder TRE duplex 15-mer (dsDNA) DNA 1: CGCGTGACTCACCCC DNA 2: GGGGTGAGTCACGCG is ____.
A: 1500
